All values here come from patent US7112680B2.

Test system: KB-HU hydroxyurea-resistant cells
Experiment: Inhibition of tumor cell growth, SRB-assay, KB-HU
Assay type: cell-based, human
Conditions: Homo sapiens, Table 4, 72 hours, read-out: In vitro-activity against human tumor cell lines, KB-HU
Endpoint: pIC50
Kindly note that pIC50 refers to -log10 of the concentration in mol/L and answer with the value alone.

These recorded examples may help you get a feel for the data.
compound="CC(=NNc1nc2ccccc2n1C)c1cc(Cl)ccn1 [Id-4]" value_reported=6.57
compound="CC(=NNc1nc2ccccc2n1C)c1cccc(-c2ccccc2)n1 [Id-17]" value_reported=5.00
compound="CC(=NNc1nc2ccccc2n1C)c1ccc(C)cn1 [Id-9]" value_reported=6.92

[ask] Quick check: pIC50 of COc1cccnc1C(C)=NNc1nc2ccccc2n1C [Id-1] ?
[reply] 8.00
